- Tested on: Dim ACR-16/Dim RIC3 stable cell line
- ASSAY INFO: Ca2+ measurement in 384-well plate format on FDSS6000 (Fluo-4AM)
- Type: cell-based, Dirofilaria immitis
- REPORTED CONDITIONS: allosteric modulator response curve; read-out: EC50 (FIG. 12)
PROPERTY NAME: EC50 (nM)
Kindly provide the numeric value in nM only, without the unit symbol.

Request: Entry "COc1cc(OC)c(NC(=O)Nc2cc(C)on2)cc1Cl" : reported EC50 = ?
Result: 2400

The measured values listed here are drawn from patent US10345292B2.
